biological target: Human rhinovirus A protease (Human rhinovirus sp.) (UniProt Q4U254); assay: Binding affinity on human Rhinovirus 3C protease (rhinovirus serotype 14)
Sequence (Q4U254 as listed by the source): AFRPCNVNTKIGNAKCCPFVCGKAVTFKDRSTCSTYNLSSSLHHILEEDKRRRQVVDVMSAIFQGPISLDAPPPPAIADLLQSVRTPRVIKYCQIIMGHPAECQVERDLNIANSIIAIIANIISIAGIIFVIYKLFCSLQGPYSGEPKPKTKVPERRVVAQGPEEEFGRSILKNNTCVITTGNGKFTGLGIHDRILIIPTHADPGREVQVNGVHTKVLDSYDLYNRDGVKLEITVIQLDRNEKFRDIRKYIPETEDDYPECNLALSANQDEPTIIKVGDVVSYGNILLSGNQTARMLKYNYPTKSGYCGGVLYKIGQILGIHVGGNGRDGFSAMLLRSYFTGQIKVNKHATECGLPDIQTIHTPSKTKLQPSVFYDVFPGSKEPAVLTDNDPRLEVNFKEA
K obs / 1 less than 3000 M⁻¹ s⁻¹ is label 1; K obs / 1 greater than or equal to 3000 M⁻¹ s⁻¹ is label 0.

cpd_smiles=CCOC(=O)/C=C/[C@H](CCC(N)=O)NC(=O)[C@H](Cc1ccccc1)NC(=O)[C@H](CC(C)C)NC(C)=O target="Human rhinovirus A protease (Human rhinovirus sp.) (UniProt Q4U254)" assigned_label="label 0"
cpd_smiles=CCOC(=O)/C=C/[C@H](CO)NC(=O)[C@H](Cc1ccccc1)NC(=O)[C@H](CC(C)C)NC(=O)OCc1ccccc1 target="Human rhinovirus A protease (Human rhinovirus sp.) (UniProt Q4U254)" assigned_label="label 1"
cpd_smiles=CCOC(=O)/C=C/[C@H](CCC(N)=O)NC(=O)[C@H](Cc1ccccc1)NC(=O)[C@H](CC(C)C)NC(=O)C1CCCC1 target="Human rhinovirus A protease (Human rhinovirus sp.) (UniProt Q4U254)" assigned_label="label 0"

Please examine the following record next.
Q: Is it true that K obs / 1 reported for CCOC(=O)/C=C/[C@H](CCC(N)=O)NC(=O)[C@H](Cc1ccccc1)NC(=O)[C@H](CCCN1CCOCC1)NC(=O)OCc1ccccc1 is less than 3000 M⁻¹ s⁻¹?
Result: label 0

----------
Would you kindly list K obs / 1 for each of these molecules?
molecular target: Human rhinovirus A protease (Human rhinovirus sp.) (UniProt Q4U254); assay: Binding affinity on human Rhinovirus 3C protease (rhinovirus serotype 14)
Numbers only, in M⁻¹ s⁻¹.

For each listed entry, give its K obs / 1.
1. CCOC(=O)/C=C/[C@H](CCC(N)=O)NC(=O)[C@H](Cc1ccccc1)NC(=O)[C@@H](NC(=O)OCc1ccccc1)[C@H](C)O
2. CCOC(=O)/C=C/[C@H](CCC(N)=O)NC(=O)[C@H](Cc1ccccc1)NC(=O)[C@@H](NC(=O)OCc1ccccc1)C(C)(C)C
3. CCOC(=O)/C=C/[C@H](CCC(N)=O)NC(=O)[C@H](Cc1ccc(OC(C)=O)cc1)NC(=O)[C@H](CC(C)C)NC(=O)OCc1ccccc1

Result:
1: 38900; 2: 39800; 3: 1200

Q: I have this molecule here, CCOC(=O)/C=C/[C@H](CCC(N)=O)NC(=O)[C@H](Cc1ccccc1)NC(=O)[C@H](CC(=O)O)NC(=O)OCc1ccccc1 , and I need its recorded K obs / 1.
Result: 35000

----------
system: rhinovirus B14; assay: Cytotoxic activity against HRV-14 in cell culture; assay type: functional, rhinovirus 14; conditions: Rhinovirus B
Readout type: CC50

The following compounds have reported results that may help.
cpd_smiles=CCOC(=O)/C=C/[C@H](CCC(N)=O)NC(=O)[C@H](Cc1ccc(CO)cc1)NC(=O)[C@H](CC(C)C)NC(=O)OCc1ccccc1 readout_value="> 320 µM"
cpd_smiles=CCOC(=O)/C=C/[C@H](CCC(N)=O)NC(=O)[C@H](Cc1ccccc1)NC(=O)[C@H](CSc1ccccc1)NC(=O)OCc1ccccc1 readout_value="> 320 µM"
cpd_smiles=CCOC(=O)/C=C/[C@H](CCC(N)=O)NC(=O)[C@H](Cc1ccc(OC)cc1)NC(=O)[C@H](CC(C)C)NC(=O)OCc1ccccc1 readout_value="> 320 µM"
cpd_smiles=CCOC(=O)/C=C/[C@H](CCC(N)=O)NC(=O)[C@H](Cc1ccc(O)cc1)NC(=O)[C@H](CC(C)C)NC(=O)OCc1ccccc1 readout_value="> 320 µM"
cpd_smiles=CCOC(=O)/C=C/[C@H](COC(N)=O)NC(=O)[C@H](Cc1ccccc1)NC(=O)[C@H](CC(C)C)NC(=O)OCc1ccccc1 readout_value="> 320 µM"
cpd_smiles=CCOC(=O)/C=C/[C@H](CCC(N)=O)NC(=O)[C@H](Cc1ccccc1)NC(=O)[C@H](CC1CCCCC1)NC(=O)OCc1ccccc1 readout_value="> 320 µM"
cpd_smiles=CCOC(=O)/C=C/[C@H](CCC(N)=O)NC(=O)[C@H](Cc1ccccc1)NC(=O)[C@H](CSC)NC(=O)OCc1ccccc1 readout_value="> 100 µM"
cpd_smiles=CCOC(=O)/C=C/[C@H](CCC(N)=O)NC(=O)[C@H](Cc1ccccc1)NC(=O)[C@H](CC(C)C)NC(=O)OCc1ccccc1 readout_value="> 320 µM"

For each listed entry, give its CC50.
1. CCOC(=O)/C=C/[C@H](CCC(N)=O)NC(=O)[C@H](Cc1ccccc1)NC(=O)[C@H](CC(C)C)NC(=O)NCc1ccccc1
2. CCOC(=O)/C=C/[C@H](CCC(N)=O)NC(=O)[C@H](Cc1ccccc1)NC(=O)[C@@H](NC(=O)OCc1ccccc1)C1CCCCC1
3. CCOC(=O)/C=C/[C@H](CCC(N)=O)NC(=O)[C@H](Cc1ccc(F)cc1)NC(=O)[C@H](CC(C)C)NC(=O)OCc1ccccc1
4. CCOC(=O)/C=C/[C@H](CCC(N)=O)NC(=O)[C@H](Cc1ccccc1)NC(=O)[C@@H](NC(=O)OCc1ccccc1)[C@H](C)SC(C)C
5. CCOC(=O)/C=C/[C@H](CCC(N)=O)NC(=O)[C@H](CC1CCCCC1)NC(=O)[C@H](CC(C)C)NC(=O)OCc1ccccc1
6. CCOC(=O)/C=C/[C@H](CNC(N)=O)NC(=O)[C@H](Cc1ccccc1)NC(=O)[C@H](CC(C)C)NC(=O)OCc1ccccc1
7. CCOC(=O)/C=C/[C@H](CCC(N)=O)NC(=O)[C@H](Cc1ccc(C)cc1)NC(=O)[C@H](CC(C)C)NC(=O)OCc1ccccc1
8. CCOC(=O)/C=C/[C@H](CCC(N)=O)NC(=O)[C@H](Cc1ccccc1)NC(=O)[C@@H](NC(=O)OCc1ccccc1)[C@@H](C)CC

Result:
> 100 µM
> 100 µM
> 320 µM
> 100 µM
> 320 µM
> 100 µM
> 320 µM
> 100 µM

For each listed entry, give its CC50.
1. CCOC(=O)/C=C/[C@H](CCC(N)=O)NC(=O)[C@H](Cc1ccccc1)NC(=O)[C@H](CC(C)C)NC(=O)OCc1ccccc1C
2. CCOC(=O)/C=C/[C@H](CCC(N)=O)NC(=O)[C@H](Cc1ccccc1)NC(=O)[C@H](CC(C)C)NC(=O)[C@@H](NC(C)=O)C(C)C
3. CCOC(=O)/C=C/[C@H](CCC(N)=O)NC(=O)[C@H](CC(C)C)NC(=O)[C@H](CC(C)C)NC(=O)OCc1ccccc1
4. CCOC(=O)/C=C/[C@H](CCC(N)=O)NC(=O)OCc1ccccc1
5. CCOC(=O)/C=C/[C@H](CCC(N)=O)NC(=O)[C@H](Cc1ccccc1)NC(=O)[C@H](CC(C)C)NC(=O)[C@@H](NC(C)=O)[C@@H](C)O

Result:
1. > 100 µM
2. > 100 µM
3. > 320 µM
4. > 100 µM
5. > 100 µM

For each listed entry, give its CC50.
1. CCOC(=O)/C=C/[C@H](CCC(N)=O)NC(=O)[C@H](Cc1ccccc1)NC(=O)[C@H](CCc1ccccc1)NC(=O)OCc1ccccc1
2. CCOC(=O)/C=C/[C@H](CCC(N)=O)NC(=O)[C@H](Cc1ccccc1)NC(=O)[C@H](CCCN1CCOCC1)NC(=O)OCc1ccccc1

Result:
> 320 µM
> 100 µM

For each listed entry, give its CC50.
1. CCOC(=O)/C=C/[C@H](CCC(N)=O)NC(=O)[C@H](Cc1ccccc1)NC(=O)[C@H](CC(C)C)NC(=O)SCC
2. CCOC(=O)/C=C/[C@H](CCC(N)=O)NC(=O)[C@H](Cc1ccccc1)NC(=O)[C@H](CC(C)C)NC(=O)c1ccccc1

Result:
1: > 320 µM; 2: > 320 µM

These measurements were taken from ChEMBL document CHEMBL1131037.
